Sourced from ChEMBL document CHEMBL1671748

- Test system: Staphylococcus aureus
- protocol-details: Decrease in delta toxin levels in Staphylococcus aureus USA300 at subinhibitory concentrations after 24 hrs by RP-HPLC/ESI- MS
- Assay type: functional, organism-based
Active and inactive are the calls of the source. The calls are words filed in the database; no cut-off is given here.
property-measured: Activity

1. CC(=O)NC[C@H]1CN(c2ccc(N3CCOCC3)c(F)c2)C(=O)O1    inactive
2. C/C(=C\C(=O)OCCCCCCCCC(=O)O)C[C@@H]1OC[C@H](C[C@@H]2O[C@H]2[C@@H](C)[C@H](C)O)[C@@H](O)[C@H]1O    inactive
3. CN[C@H](CC(C)C)C(=O)N[C@H]1C(=O)N[C@@H](CC(N)=O)C(=O)N[C@H]2C(=O)N[C@H]3C(=O)N[C@H](C(=O)N[C@H](C(=O)O)c4cc(O)cc(O)c4-c4cc3ccc4O)[C@H](O)c3ccc(c(Cl)c3)Oc3cc2cc(c3O[C@@H]2O[C@H](CO)[C@@H](O)[C@H](O)[C@H]2O[C@H]2C[C@](C)(N)[C@H](O)[C@H](C)O2)Oc2ccc(cc2Cl)[C@H]1O    inactive
4. O=C(O)c1cn(C2CC2)c2cc(N3CCNCC3)c(F)cc2c1=O    inactive

# evaluate next
Query string: Value wanted: Activity (Staphylococcus aureus) of entry CCC[C@@H]1C[C@@H](C(=O)N[C@@H]([C@H]2O[C@H](SC)[C@H](O)[C@@H](O)[C@H]2O)[C@H](C)Cl)N(C)C1
Result string: inactive
